The origin of these recorded values is paper PMC4336329.

Molecular target: human ether-à-go-go-related gene (hERG) potassium channel (human, UniProt Q12809)
Sequence (Q12809 whole entry, looked up): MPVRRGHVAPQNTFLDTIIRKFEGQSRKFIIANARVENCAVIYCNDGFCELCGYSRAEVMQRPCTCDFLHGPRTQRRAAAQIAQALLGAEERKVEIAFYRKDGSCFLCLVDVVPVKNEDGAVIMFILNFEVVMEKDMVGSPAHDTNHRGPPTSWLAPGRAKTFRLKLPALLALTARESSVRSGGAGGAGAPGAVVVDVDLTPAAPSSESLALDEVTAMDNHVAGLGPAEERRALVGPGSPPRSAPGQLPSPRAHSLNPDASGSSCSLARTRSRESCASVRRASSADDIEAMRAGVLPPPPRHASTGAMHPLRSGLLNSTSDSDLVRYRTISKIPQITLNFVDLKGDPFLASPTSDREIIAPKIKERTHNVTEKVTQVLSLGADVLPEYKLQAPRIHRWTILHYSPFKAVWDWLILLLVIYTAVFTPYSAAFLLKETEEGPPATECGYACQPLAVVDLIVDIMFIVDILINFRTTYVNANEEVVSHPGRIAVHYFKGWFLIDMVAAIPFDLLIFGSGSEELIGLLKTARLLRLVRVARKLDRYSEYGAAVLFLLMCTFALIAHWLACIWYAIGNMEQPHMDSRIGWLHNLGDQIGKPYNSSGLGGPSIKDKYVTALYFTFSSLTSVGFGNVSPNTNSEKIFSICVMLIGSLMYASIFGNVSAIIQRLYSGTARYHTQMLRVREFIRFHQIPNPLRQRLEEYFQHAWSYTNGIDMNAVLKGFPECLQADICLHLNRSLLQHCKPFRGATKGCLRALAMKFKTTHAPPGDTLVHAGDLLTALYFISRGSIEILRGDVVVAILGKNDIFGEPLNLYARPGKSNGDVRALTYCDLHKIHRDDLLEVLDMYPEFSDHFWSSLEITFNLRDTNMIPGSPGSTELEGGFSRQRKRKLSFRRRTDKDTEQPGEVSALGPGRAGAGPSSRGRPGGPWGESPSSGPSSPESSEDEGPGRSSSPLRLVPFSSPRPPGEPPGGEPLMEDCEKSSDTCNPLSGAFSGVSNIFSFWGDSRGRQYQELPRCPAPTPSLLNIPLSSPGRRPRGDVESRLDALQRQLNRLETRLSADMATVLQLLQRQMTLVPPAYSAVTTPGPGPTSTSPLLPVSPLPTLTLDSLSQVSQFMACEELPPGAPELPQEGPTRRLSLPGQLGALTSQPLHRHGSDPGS
Experiment: primary screen, population patch clamp on CHO cells stably expressing hERG; higher = less effect of the substance
Screen size: about 310,000 compounds; about 2,200 (0.71%) showed an effect of 50% or more. The effect is printed as a negative number. What follows is part of a selection rich in strong results, with near analogues and random picks from the rest.
# binarize hERG current change (%, negative = inhibition) at 1uM: threshold -10% inclusive, high side yes (1), low side no (0)

CC(C)N(CCNC(=O)COc1ccc2oc3c(c2c1)CCCC3)C(C)C : no (0)
CCCc1cc(=O)oc2cc(C)cc(OCC(=O)NCCCn3ccnc3)c12 : no (0)
CCCCCCn1c(SCCN2CCOCC2)nc2c1c(=O)[nH]c(=O)n2C : no (0)
CSc1ccc(CN2CCN(C(=O)c3ccncc3)CC2)cc1 : yes (1)
CCc1cc(=O)oc2cc(C)cc(OCC(=O)NCCCn3ccnc3)c12 : yes (1)
Cc1cccn2c(=O)c3cc(C(=O)NCC4CCCO4)c(=N)n(Cc4cccnc4)c3nc12 (stereo not shown) : no (0)
Cc1c(C)c2ccc(OCC(=O)NCCCn3ccnc3)c(C)c2oc1=O : no (0)
CCN(CC)Cc1c(O)ccc2occ(C(=O)c3ccccc3)c12 : no (0)
Cc1ccc(C(=O)c2coc3ccc(O)c(CN(C)C)c23)cc1.Cl : no (0)
COCCSc1nc2c(c(=O)[nH]c(=O)n2C)n1Cc1cccc(C)c1 : yes (1)
COc1ccc2occ(C(=O)c3coc4ccc(O)c(CN(C)C)c34)c2c1.Cl : no (0)
Cn1c(=O)[nH]c(=O)c2c1nc(SCCN1CCCCC1)n2CCCc1ccccc1 : no (0)
CCc1cc(=O)oc2cc(C)cc(OCC(=O)NCc3ccncc3)c12 : yes (1)
Cc1cccn2c(=O)c3cc(C(=O)NC4CCCCC4)c(=N)n(Cc4ccc(F)cc4)c3nc12 : no (0)
Cn1c(=O)[nH]c(=O)c2c1nc(SCCO)n2CCCc1ccccc1 : yes (1)
Cc1cc(OCC(=O)NCCCn2ccnc2)c2c(C)cc(=O)oc2c1 : yes (1)
Cn1c(=O)[nH]c(=O)c2c1nc(SCCN1CCOCC1)n2Cc1ccccc1 : no (0)
CC(C)OCCCNC(=O)COc1ccc2oc3c(c2c1)CCCC3 : yes (1)
CCCCCn1c(SCCN2CCOCC2)nc2c1c(=O)[nH]c(=O)n2C : no (0)
CN1CCN(Cc2c(O)ccc3occ(C(=O)c4ccccc4)c23)CC1 : no (0)
COc1ccccc1C(=O)Nn1c(C2CCC2)nc2ccccc2c1=O : yes (1)
CCCCc1cc(=O)oc2cc(C)cc(OCC(=O)NCc3ccncc3)c12 : no (0)
CCCc1cc(=O)oc2c(C)c(OCC(=O)NCCCn3ccnc3)ccc12 : no (0)
COc1cc2c(C(=O)N3CCCc4ccccc43)cn(C)c(=O)c2cc1OC : yes (1)
CC(=O)NS(=O)(=O)c1ccc(NC(=O)C2C3C=CC(C3)C2C(=O)O)cc1 (stereo not shown) : yes (1)
CCN(CC)CCCNC(=O)COc1ccc2oc3c(c2c1)CCCC3.Cl : yes (1)
CCc1cc(=O)oc2cc(C)cc(OC(C)C(=O)NCCCn3ccnc3)c12 (stereo not shown) : yes (1)
CN(C)Cc1c(O)ccc2occ(C(=O)c3ccc(F)cc3)c12 : no (0)
CN(C)Cc1c(O)ccc2occ(C(=O)c3ccccc3)c12 : no (0)
Cc1cccn2c(=O)c3cc(C(=O)NCC4CCCO4)c(=N)n(Cc4ccc(F)cc4)c3nc12 (stereo not shown) : no (0)
CSc1ccc(CN2CCN(C(=O)c3ccc([N+](=O)[O-])cc3)CC2)cc1.O=C(O)C(=O)O : no (0)
Cc1cccn2c(=O)c3cc(C(=O)NCc4cccnc4)c(=N)n(CC4CCCO4)c3nc12 (stereo not shown) : no (0)
NC(=O)c1ccc(-c2nnn(CC(=O)N(C3CCCCC3)C3CCS(=O)(=O)C3)n2)cc1 (stereo not shown) : yes (1)
CCC(Sc1nc(N)c(NC(=O)c2ccc(OC)c(OC)c2)c(=O)[nH]1)C(=O)OC (stereo not shown) : yes (1)
CC(C)CCn1c(SCCN2CCOCC2)nc2c1c(=O)[nH]c(=O)n2C : yes (1)
Cc1c(C#N)c2ccccc2n1CC(=O)NC(C)c1ccccc1 (stereo not shown) : yes (1)
CCOc1ccccc1NC(=O)C(OC(=O)c1ccccc1O)c1ccccc1 (stereo not shown) : yes (1)
